# methodDescription: label from the status in PepcDB records;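 also: failed if final PepcDB status was selected cloned or expressed and not failed if soluble or beyond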

seq	protein production
QIPAERDREPSKLKRSYSSPDITQAIQEEEKRKPTVTPTVNRENKPTCYPKAEISRLSASQIRNLNPVFGGSGPALTGLRNLGNTCYMNSILQCLCNAPHLADYFNRNCYQDDINRSNLLGHKGEVAEEFGIIMKALWTGQYRYISPKDFKITIGKINDQFAGYSQQDSQELLLFLMDGLHEDLNKADN	failed
EENPRGRFAITLPHSLESNVVMPAIEQLCIEYPGIEPEIIVSDSSLDLVENNLDVAIHAGDLPDSSYRALPIGTITEIFCATPLYLNKNFTPQKLSDLAQLKWI	failed

* * *

# methodDescription: label from the status in PepcDB records
measurementName: protein production

Check out these entries, answers already filled in.
seq	result
MPTPRPEPAAPPGNNQAGPPAGGPIISPTDLIAIQPPRAVAGDFVPDEVLVTVDGDAGAVQQIAASFGLEVRSQRQSRLLGTTLVRFGIPDGRPVGVVLAQLAADGRTQRREPNHIYSLQQAAGIVNYAFDRIALDAKQASGENIRVAVIDTGIDDTNPALAGVIAAQFDAMPGVPVEKRDHGTSIDGLIAGVGALEGMAPGARIYHARAFEGGKSTMDVILSALDWAAEQNVSIINMSFVGPKNDLLGAACRNARALGMVLVAAAGNNGPKAPYGYPAAFDGVIAVTATDAKDALMPQANRGAYVFISAPGVEMVAPSGAGSDVVTGTSFAAAIVSGAIANLLHASPGRTADDIEKALAATAKDLGPKGRDNDFGYGLLDIKAAEAAKE	failed
MVKATKAEKKIAYDTKLCQLIDEYTQILVVAADNVGSTQLQNIRKGLRGDSVVLMGKNTMMKRSVRIHSENTGNTAILNLLPLLQGNVGLIFTKGDLKEVSEEVAKYKVGAPARVGLVAPIDVVVQPGNTGLDPSQTSFFQVLNIPTKINKGTVEIITPVELIKQGDKVGSSEAALLAKLGIRPFSYGLVVQSVYDNGSVFSPEVLDLTEDQLVEKFASGISMVTSLALAVSYPTLAAAPHMFINAYKNALAIAVATEYTFPQAEKVKEYLKDPSKFAVASVAAVSADAGGGAPAAAKVEEKEESDEEDYGGDFGLFDEE	failed
MSEWRGFNRKGNTMKIRPGRHNAPDFPHGAAVTIGNFDGVHLGHKHILQKLRLEADARGLPVVAVVFEPQPKEFFALRTGKTPPCRISPLRTKLELLEGTGCVDAAWVLRFDRNFSEISAQAFIDRLLRQTLNTRYLLVGDDFRFGAGREGCFELLAQQPDMQTERTPSVIVEDIRTSSTAVRQALSDGNLAYAKKLLGHDYVLGGRVVHGRKLGRTLNAPTANIRLPGHRYALGGVFVVEADGAFGTRRGVASFGFNPTVDGGCSQKLEVHLFDFQGDLYGQRLNVRFLHKLRDEEKFDGMEELKRRIEADMEAAKCW	not failed
MGLCVSVNRNEYVSSSTTAKIVTINGDLREYDVPVLASQVLESESTSSSSSSSSSSYFLCNSDSLYYDDFIPAIESDEILQANQIYFVLPISKRQYRLSASDMAALAVKASVAIEKAAGKKNRRRRSGRISPVVTLNQANDNRIAAVNNRIGGEATNMMMQKGKLPNRTTPFKDTNGYSRSGSVRKLKRYTSGRAKLAVRSFRLRLSTIYEGSSFN	failed

Entry MNHTADNCIFCKIIDGQILCSKVYEDEHVLAFLDISQVTKGHTLVIPKVHKQDIFALTPEIASHIFSVVPKIANAIKAEFNPVGFNLLNNNGEKAGQTVFHFHLHLIPRYGENDGFGAVWKSHQNEYTMENLQNIASTIANSVK needs its protein production filled in; supply it.
not failed

* * *

# methodDescription: label from the status in PepcDB records
measurementName: protein production

Check out these entries, answers already filled in.
seq	result
MNIQLSPLEARVIGCLIEKEVTTPDHYPLTLNSLTTACNQKSNREPVLNLSEAEVQDTVEGLIARRLVSDESSFNSRTSKYQHRFCNTEFGDLKLNQQELGLICCLLLRGAQTPGELRTRTNRLCTFTDVKETEAVLERLANRDSGALVVKLPREPGKRESRYHHLFCGEVDMAA	not failed
MTGVLTADRPPKPAAPRRYTVALARDEDDVRAAQRLRHDVFAGEMGALLASPQPGHDVDAFDAYCDHLLVREETTGQVVGTYRLLPPERAAVAGRLYAESEFDLAALDPIRSSLVEVGRSCVHPDHRDGAVIGLVWAGIARYMTDRGHAWLAGCCSLPLADGGALAAGAWDRVRTKHLAPEEYRVRPLLPWVPRPAAPAARTELPALLRGYLRLGAWVCGEPAHDVDFGVADLYVLLPMNRVDPRYLRHFLSLAPA	failed
MTRKSFPFFLLGLILTVGIDQAVKYWVMHNIPLGTETPLLPFLSLYHVRNSGIAFSFFSSFSHWGLIFLTLIILIFLLWLWKNTQYNKSLTRFGFTLIIGGAIGNLIDRICFYYVIDYILFYINDVFYFAVFNLADTFITLGVIAIIIEELLSWIKRKSTFSE	failed
WMVQDSVGSGAALASLEGEETGRLWLAAQPEHGFQTLQGLAYALAREVRRLQPDSPYRLAGKGVLGALAYEVGLQLRGMGQTVACVALEGAPAWVRQSEALAVERSQASLPAWLRRCLSSYVPEPGDFPLQPTNMPASAEAFWRALG	failed
MSRPADKPQPFYFAYGSNMNPAQIEARCRKPEVVATARLPDHRLGFFGSSKIWDGGEESAQPEPGADLWGVVYRLSFHDAEILDTWQKVWLDGTGPYFHFPTQVFDAEGRNYPVLLYKRDVLGPRQKPSAPYLDHIIAGAMARALPPPYIDLLRAIPTCQASTPVPRKASFNPEFFAGLACQCGDLEHHHHHH	failed
MSLAQIKSLFATRLYHAPLSEHGPALDPAEFAASCYSIAEDDDAGQEWCEREGYPGYTSYASLTDLPWRFPIFADLVKSLDAHVAAFAEDLEFELDGKALRLEDIWINILPEGGVHGSHIHPHSVISGTTYVAMPEGTSALKLEDPRLPFMMAAPTRRKGAREELRTFRSVAPKVGDVLLWESWLRHEVPMNMAEEDRISVSFNYAWGEGHHHHHH	not failed

Entry FQKYQYPIYYGNAIFLADSPKKIDTPLYSPIKIAFEKALKNAKDSVFIASSYFIPGKKMMKIFKNQISKGIELNILTNSLSSTDAIVVYGAWERYRNQLVRMGANVYEIRNDFFNRQIKGRFSTKHSLHGKTIVFDDNLTLLGSFNIDPRSAYINTESAVLFDNPSFAKRVRLSLKDHAQQSWHLVVYRHRVIWEAVEEGILIHEKTSPDTSFFLRLIKEWSKVLPEREL needs its protein production filled in; supply it.
failed

* * *

# methodDescription: label from the status in PepcDB records
measurementName: protein production

seq	result
MDSEGFSPSIYTDKTGHPTIGYGYNLSVYSYEGKRITKTYGLLTDILSYGWYKNLDAMRRMVILDLSYNLGLNGLLKFKQFIKAIEDKNYALAVERLQKSPYFNQVKKERQGIWKF	failed
MIIGCSASQKLAASVADLLDEPLCPVETRKFPDGERYIRVKEEVEGEVTVVQSTGYPQDENLMELLFMIENLKDLGADYVRAAIPYFGYGRQERRFKSGEAVSAKIVAHLLEAAGADEIVTVNLHENCLSEFFRVPVRELSAMPLIAEHISFLDDPVIIAPDKGALGHAREVSDILGCECDYMEKVRISPEVVETRVSDLDVEGKDAVVVDDIISTGGTIVNAAGILGKCGASSITVCCVHPVLVEDALLKIFSAGVERVIATDTLKSDVSEISVAPLIADVMKD	failed
FLVTPEGRRIAYRLTDGEGPAVVFCGGFKSDMEGTKALHLQAWAERTGRAFLRFDYSGHGQSEGAFLDGSIGDWFEDARAVCGLLAGPLLLVGSSMGGWISLLLAREMGARVAGLVGIAAAPDFTEDSMWGGFNAAQREALQRAGQVILPSDYSEEPYIITRRLIEEGRRRLVLRDPLELGFPVRLLQGTADVDVPPSVALRLLDHATGPDIRLTLVKGADHRFSTPECLRMIEQAVEELL	failed

* * *

# methodDescription: label from the status in PepcDB records

seq	protein production
MQHYFYYIHSKHITPCFIFVDDVLSCLQRLNYQHLPAVSWSCFVSDQIIARVSQSLAKEQSLESLVRQLLEMLEMVTDMESTYLTKVDVEARLQHIMFARNSQKMHIPENFTVSWDYSLCKRAIDENCFFSDEVPDRWGDCIAARNLGITTFLSTPIHLPDGSFYGTLCAASSEKRQWSERAEQVLQLFAGLIAQYIQKEALVEQLREANAALIAQSYTDSLTGLPNRRAIFENLTTLFSLARHLNHKIMIAFIDLDNFKLINDRFGHNSGDLFLIQVGERLNTLQQNGEVIGRLGGDEFLVVSLNNENADISSLRERIQQQIRGEYHLGDVDLYYPGASLGIVEVDPETTDADSALHAADIAMYQEKKHKQKTPFVTHSALHS	failed
MKQILFLLAAVLLLGGCAEEKKTDVRWATFNIRYDNPQDSLNNWQYRKDRVCQFIKDHELDIVGMQEVLHNQFQDLRAGLPEYDGIGVGRDDGKTAGEYAPLFYRKDKYEVLDSNTFWLAENPDSVGMMGWDAVCVRIATWAKFKDKATGKIFMAVNTHFDHVGEEARRQSALLIIRKIKEIVGERPAVVTGDFNVTDASDAYETITTNEFVMKDAYKTAARVTGVDYTFHDFARIPAEDCEKIDFIFVTPQVLVKSCEIPAEVPEALLSDHNPQLADLEF	failed
